CONDITION: in acetone, 283.16 K
MEASURED QUANTITY: solubility (mole fraction)

{"MOLECULE": "CC(CN1c2ccccc2S(=O)(=O)c2ccccc21)N(C)C.Cl (stereo unspecified)", "MEASURED QUANTITY": "solubility (mole fraction)", "MEASURED": 0.000124}

====

CONDITION: in DMF, 323.18 K
MEASURED QUANTITY: solubility (mole fraction)

{"COMPOUND": "CC(CN1c2ccccc2S(=O)(=O)c2ccccc21)N(C)C.Cl (stereo unspecified)", "MEASURED": 0.00783}

====

CONDITION: in water, 308.16 K

{"COMPOUND": "CC(CN1c2ccccc2S(=O)(=O)c2ccccc21)N(C)C.Cl (stereo unspecified)", "solubility (mole fraction)": 0.00484}
